Protocol Notes: in vitro
Particulars: African green monkey
Metric: CC50 at 4 days
Returns: string containing the numeric result and its unit.

# get_value(readout='CC50 at 4 days', item= CC(C)C[C@](C)(N)COc1ccc(-c2ccnc(C(F)F)c2)nc1C(F)F ) 13.5 µM

----------
Protocol Notes: in vitro
Particulars: African green monkey, CC50 measured by microscopic visual assay, Vero 76 cells
Metric: CC50 (µg/mL)
Provide the reading as a plain figure in µg/mL.

Which CC50 reading was recorded for the compound CC(C)C[C@](C)(N)COc1ccc(-c2ccnc(C(F)F)c2)nc1C(F)F [Compound 1] ? 22

----------
Tested on: HCoV 229E
Protocol Notes: HCoV 229E CPE assay in MRC-5 cells (CellTiter Glo)
Format: cell-based, human coronavirus (HCoV) 229E
Particulars: unidentified human coronavirus, MRC5, read-out: HCoV 229E CPE assay EC50
Metric: EC50 (µM)
# output: bare number, implied unit µM

Find the recorded EC50 belonging to CCC(CC)COC(=O)[C@H](C)N[P@](=O)(OC[C@H]1O[C@@](C#N)(c2ccc3c(N)ncnn23)[C@H](O)[C@@H]1O)Oc1ccccc1 and report it. 0.02

----------
Test system: H292 cells (NCI-H292)
Protocol Notes: Cytotoxicity in uninfected H292 cells (MTT)
Particulars: CC50, uninfected H292 cells
Metric: Cytotoxicity (µM)
Report the figure in µM without appending any unit label.

[[record]]
compound = "CC(C)C[C@](C)(N)COc1ccc(-c2ccnc(C(F)F)c2)nc1C(F)F"
target_under_test = "H292 cells (NCI-H292)"
observed_value = 57.72


Now consider a different compound.
Which Cytotoxicity reading was recorded for the compound CCN(CC)CCCC(C)Nc1ccnc2cc(Cl)ccc12 (stereo not shown) ? 46.04

----------
Protocol Notes: Cytotoxicity on Huh7 cells (CellTiter Glo)
Particulars: human, Huh7 cells without virus
Metric: CC50 (µM)
I only need the number, in µM, no unit after it.

Entry CC(C)C[C@](C)(N)COc1ccc(-c2ccnc(C(F)F)c2)nc1C(F)F : reported CC50 = ? 13.2
